# Test system: primary CLL cells
# assay notes: Cytotoxicity, TMRE flow cytometry viability, primary CLL cells (Example II.1)
# Type: cell-based
# measurement parameters: Homo sapiens, CLL cell, 6 hours, TMRE positive cells normalized to control, ratio to PF670462, <1 = higher cytotoxicity than PF670462, read-out: Viability of cells, Compound of formula I (100 μM), relative to PF670462 (100 μM), CLL primary cells
property name: viability at 100 µM (%)
Provide the reading as a plain figure in %.

Field: example entries. Status: answers known.
CSc1nc(-c2ccc(F)cc2)c(-c2ccnc3[nH]ccc23)n1C1CCCCC1 [Preparative Example 136]; 47
COC(=O)[C@H]1CC[C@H](n2cnc(-c3ccc(F)cc3)c2-c2ccnc3[nH]ccc23)CC1 [Preparative Example 34]; 55

Requested field: viability at 100 µM. Item: COCc1cc2c(-c3c(-c4ccc(F)cc4)ncn3C3CCCCC3)ccnc2[nH]1 [Preparative Example 60]
93

Requested field: viability at 100 µM. Item: COC(=O)[C@H]1CC[C@@H](n2cnc(-c3ccc(F)cc3)c2-c2ccnc3[nH]ccc23)CC1 [Preparative Example 33]
63

###

# assay notes: Pharmacokinetic study, oral dosing, plasma concentration by LC-MS/MS (Example II.5)
# Type: in vivo
# measurement parameters: mouse, male Balb/c mice, oral 20 mg/kg as dihydrochloride in saline, free base quantified, below LLOQ designated zero, read-out: conc. at 15 min
Each entry below carries its reported concentration at 15 min.
Include the unit after the number when you answer.

Cn1ccnc1Cn1cnc(-c2ccc(F)cc2)c1-c1ccnc2[nH]ccc12; 2.73 µM

Requested field: concentration at 15 min. Item: CN1CCC(F)(Cn2cnc(-c3ccc(F)cc3)c2-c2ccnc3[nH]ccc23)CC1
2.38 µM

Requested field: concentration at 15 min. Item: Fc1ccc(-c2ncn(Cc3cocn3)c2-c2ccnc3[nH]ccc23)cc1
2.17 µM

Requested field: concentration at 15 min. Item: Cn1cc(Cn2cnc(-c3ccc(F)cc3)c2-c2ccnc3[nH]ccc23)nn1
8.01 µM

Requested field: concentration at 15 min. Item: Fc1ccc(-c2ncn(Cc3nc[nH]n3)c2-c2ccnc3[nH]ccc23)cc1
13.9 µM

Requested field: concentration at 15 min. Item: Cn1cnc(Cn2cnc(-c3ccc(F)cc3)c2-c2ccnc3[nH]ccc23)c1
9.52 µM

Requested field: concentration at 15 min. Item: Cn1ccc(Cn2cnc(-c3ccc(F)cc3)c2-c2ccnc3[nH]ccc23)n1
0.44 µM

Requested field: concentration at 15 min. Item: CN1CCC(Cn2cnc(-c3ccc(F)cc3)c2-c2ccnc3[nH]ccc23)CC1
0.62 µM

###

# System: primary CLL cells
# assay notes: Cytotoxicity, TMRE flow cytometry viability, primary CLL cells (Example II.1)
# Assay type: cell-based
# measurement parameters: Homo sapiens, CLL cell, 6 hours, TMRE positive cells normalized to control, ratio to PF670462, <1 = higher cytotoxicity than PF670462, read-out: Viability of cells, Compound of formula I (100 μM), relative to PF670462 (100 μM), CLL primary cells
property name: viability at 100 µM (%)
Provide the reading as a plain figure in %.

Requested field: viability at 100 µM. Item: CN1CCC(Cn2cnc(-c3ccc(F)c(Cl)c3)c2-c2ccnc3[nH]ccc23)CC1
43

Requested field: viability at 100 µM. Item: CC(C)(C)OC(=O)N1CCC(n2cnc(-c3ccc(F)cc3)c2-c2ccnc3[nH]ccc23)CC1
30

Requested field: viability at 100 µM. Item: Cc1nc(Cn2cnc(-c3ccc(F)cc3)c2-c2ccnc3[nH]ccc23)cs1
74

Requested field: viability at 100 µM. Item: O[C@H]1CC[C@H](n2cnc(-c3ccc(F)cc3)c2-c2ccnc3[nH]ccc23)CC1
67

Requested field: viability at 100 µM. Item: Fc1ccc(-c2nc(Br)n(C3CCCCC3)c2-c2ccnc3[nH]ccc23)cc1
9

Requested field: viability at 100 µM. Item: CN(C)CCS(=O)(=O)N[C@H]1CC[C@@H](n2cnc(-c3ccc(F)cc3)c2-c2ccnc3[nH]ccc23)CC1
16

Requested field: viability at 100 µM. Item: C=C(C)Cn1cnc(-c2ccc(F)cc2)c1-c1ccnc2[nH]ccc12
69
